Source: patent US20240270826A1

The following binders are listed with their measured koff values.
assay_target: SARS-CoV spike (S) (SARS-CoV, UniProt P59594 14-1195)
procedure_summary: SPR, VHH over immobilised S
Param answer (str): number followed by unit.

Request: Specify koff for NRCoV2-07 VHH (VHH) VHH: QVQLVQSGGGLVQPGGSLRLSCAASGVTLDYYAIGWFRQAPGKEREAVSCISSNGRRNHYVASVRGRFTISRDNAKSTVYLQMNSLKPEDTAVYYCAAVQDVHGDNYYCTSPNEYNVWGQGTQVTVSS and stop.
Response: 0.00146 s⁻¹

Request: Answer with the recorded koff for the binder listed here: NRCoV2-S2G3 VHH (VHH) VHH: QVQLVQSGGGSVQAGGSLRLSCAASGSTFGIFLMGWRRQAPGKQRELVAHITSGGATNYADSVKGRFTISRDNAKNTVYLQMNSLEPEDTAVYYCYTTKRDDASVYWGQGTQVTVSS
Response: 0.0008 s⁻¹

Request: Return koff (reported value) for this binder: NRCoV2-MRed19 VHH (VHH) VHH: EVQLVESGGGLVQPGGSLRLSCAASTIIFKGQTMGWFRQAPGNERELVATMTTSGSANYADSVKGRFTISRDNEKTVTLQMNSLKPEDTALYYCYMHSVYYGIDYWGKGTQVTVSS
Response: 0.00614 s⁻¹

Request: Given the binder NRCoV2-11 VHH (VHH) VHH: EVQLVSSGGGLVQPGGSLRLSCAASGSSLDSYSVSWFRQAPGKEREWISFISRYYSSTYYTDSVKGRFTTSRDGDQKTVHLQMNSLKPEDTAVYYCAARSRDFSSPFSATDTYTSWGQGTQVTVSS , write its reported koff.
Response: 2.7e-05 s⁻¹
